assay: simulated sunlight photostability test, thin films on glass slides; type: physicochemical; settings: thin films on glass slides
T50 glass slides overview
measured-parameter: T50 glass slides (h)

[
  {
    "compound": "CCOc1ccc(Cc2ccc(C(=O)N/C=C\\CCCC(=O)NCC(=O)OC)cc2)cc1 [Compound 15]",
    "units-of-measure": "h",
    "reported": 20
  },
  {
    "compound": "CCCCCCOc1ccc(C(=O)N/C=C\\CCCC(=O)NCC(=O)OC)cc1 [Compound 13]",
    "units-of-measure": "h",
    "reported": 5
  },
  {
    "compound": "COC(=O)CNC(=O)CCC/C=C\\NC(=O)c1ccc(Cc2ccc(Br)cc2)cc1 [Compound 14]",
    "units-of-measure": "h",
    "reported": 12
  },
  {
    "compound": "CCCCCCCCCCCCC(=O)N/C=C\\CCCC(=O)NCC(=O)OC [Compound 12]",
    "units-of-measure": "h",
    "reported": 0.1
  },
  {
    "compound": "COC(=O)CNC(=O)CCC/C=C\\NC(=O)/C=C(C)/C=C/[C@H](C)[C@H](OC)[C@H](C)[C@H](/C=C/c1ccccc1)OC [Compound 11, crocacin D, reference compound]",
    "units-of-measure": "h",
    "reported": 0.6
  }
]
